# target_under_test: carnitine acetyltransferase (CAT) (Columba livia, UniProt P52826)
# Construct: an enzyme isolated from pigeon breast muscle (Sigma Aldrich) was used in the form of an ammonium sulfate suspension; tissue Sigma-Aldrich; host or cells: pigeon breast muscle
# Sequence (P52826 31-627): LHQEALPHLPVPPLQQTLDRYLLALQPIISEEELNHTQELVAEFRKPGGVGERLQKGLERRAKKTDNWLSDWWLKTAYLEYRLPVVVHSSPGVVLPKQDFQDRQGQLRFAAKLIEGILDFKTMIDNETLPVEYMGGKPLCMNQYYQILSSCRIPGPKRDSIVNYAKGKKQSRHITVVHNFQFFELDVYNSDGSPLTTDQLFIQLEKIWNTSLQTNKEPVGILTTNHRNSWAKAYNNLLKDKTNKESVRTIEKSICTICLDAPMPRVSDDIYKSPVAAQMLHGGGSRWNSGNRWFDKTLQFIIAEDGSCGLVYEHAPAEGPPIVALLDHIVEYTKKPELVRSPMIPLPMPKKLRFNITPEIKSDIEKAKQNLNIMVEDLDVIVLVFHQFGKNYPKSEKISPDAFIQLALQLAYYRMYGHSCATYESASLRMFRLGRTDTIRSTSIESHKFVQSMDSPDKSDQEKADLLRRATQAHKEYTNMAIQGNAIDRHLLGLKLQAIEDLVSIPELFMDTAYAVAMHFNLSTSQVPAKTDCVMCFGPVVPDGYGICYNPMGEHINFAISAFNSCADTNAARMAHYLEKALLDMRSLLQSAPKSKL
# procedure_summary: Initial screening of CAT inhibition, spectrophotometric kinetic method with Ellman's reagent
# Assay type: biochemical
# conditions: read-out: CAT inhibition (%), inhibitor 100 μM; read in first minute of reaction
value_type: inhibition at 100 µM (%)
The response must be a number in % with no trailing unit.

Item COc1cc2c(cc1OC)C(C(=O)O)C(c1cccc(OC)c1OC)OC2=O (racemic) [cis-10] has what recorded inhibition at 100 µM?
1

Item CCCCCCCCCCC1OC(=O)c2cc(OC)c(OC)cc2C1C(=O)O (racemic) [cis-8] has what recorded inhibition at 100 µM?
44

Item COc1cc2c(cc1OC)C(C(=O)O)C(c1ccccc1)OC2=O (racemic) [trans-9] has what recorded inhibition at 100 µM?
1

Item COc1ccc(OC)c(C2OC(=O)c3cc(OC)c(OC)cc3C2C(=O)O)c1 (stereo not drawn) [cis-11] has what recorded inhibition at 100 µM?
1

Item CCCCCCCCCC1OC(=O)c2cc(OC)c(OC)cc2C1C(=O)O (racemic) [cis-7] has what recorded inhibition at 100 µM?
8

Item CCCCCCCCCC1OC(=O)c2ccccc2C1C(=O)O (racemic) [cis-3] has what recorded inhibition at 100 µM?
9

Item CCCCCCCC1OC(=O)c2ccccc2C1C(=O)O (racemic) [cis-2] has what recorded inhibition at 100 µM?
3
